Below: a set of entries, each annotated with reported pKi.
experimental target: human dopamine D2 (Long form) receptor (Homo sapiens)
experimental protocol: D2 dopamine receptor binding assay ([3H]spiperone, membranes of CHO K1 cells)
pKi: −log10 of the molar value.

Answered cases to consult:
compound	val
Cc1ccc(N2CCN(CCC3NC(=O)c4ccccc43)CC2)nc1 (stereo not drawn)	< 5.23
Cc1nc(N2CCN(CCC3NC(=O)c4ccccc43)CC2)sc1C (stereo not drawn)	< 5.23
Cc1ccc(N2CCN(CCC3NC(=O)c4ccccc43)CC2)cc1 (stereo not drawn)	< 5.23

Give the measured pKi for O=C1NC(CCN2CCC(=C(c3ccccc3)c3ccccc3)CC2)c2ccccc21 (stereo not drawn)
5.67

Give the measured pKi for O=C1NC(CCN2CCN(c3ccc(Cl)cc3)CC2)c2ccccc21 (stereo not drawn)
< 5.23

Give the measured pKi for COc1ccc(N2CCN(CCC3c4ccccc4C(=O)N3C)CC2)cc1 (stereo not drawn)
< 5.23

====

experimental target: human dopamine D2 (Long form) receptor (Homo sapiens, UniProt P14416)
Sequence (P14416 whole entry): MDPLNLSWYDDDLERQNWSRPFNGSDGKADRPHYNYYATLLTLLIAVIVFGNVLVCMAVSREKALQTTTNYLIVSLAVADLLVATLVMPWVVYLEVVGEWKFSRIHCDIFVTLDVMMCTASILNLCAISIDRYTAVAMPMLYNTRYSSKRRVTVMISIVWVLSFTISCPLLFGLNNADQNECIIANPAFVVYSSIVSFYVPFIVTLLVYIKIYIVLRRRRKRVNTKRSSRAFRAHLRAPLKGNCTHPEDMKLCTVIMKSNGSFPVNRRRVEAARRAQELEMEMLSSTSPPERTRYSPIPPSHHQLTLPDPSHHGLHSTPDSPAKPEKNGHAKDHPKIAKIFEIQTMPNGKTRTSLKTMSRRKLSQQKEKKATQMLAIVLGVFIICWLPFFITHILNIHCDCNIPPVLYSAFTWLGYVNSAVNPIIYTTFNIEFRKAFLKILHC
experimental protocol: D2 dopamine receptor binding assay ([3H]spiperone, membranes of CHO K1 cells)
condition description: human D2 receptor, CHO K1 membranes, 0.2 nM [3H]spiperone, 60 min, 25° C.; apparent Ki from IC50 (Cheng and Prusoff)
Method: A cell line expressing human dopamine D2 (Long form) receptors was purchased from Oregon Health Sciences University, Portland, Oreg. The D2 receptor cDNA was subcloned into an expression vector, pRc/CMV. […] Saturation and competition binding data were analyzed using an iterative nonlinear least-square curve-fitting Ligand program. […] To allow these calculations, Kd values were measured for the interaction of various ligands with the receptor.
parameter measured: Ki
Field: value (include unit after the number)

Give the measured Ki for Cc1ccc(C2CCN(CCC3NC(=O)c4ccccc43)CC2)cc1C (stereo not shown)
1210 nM

====

Below: a set of entries, each annotated with reported pKi.
experimental target: human recombinant dopamine D4.2 receptor (Homo sapiens, UniProt P21917, DEL265-296)
Sequence (P21917 with tags, fused parts or gaps DEL265-296): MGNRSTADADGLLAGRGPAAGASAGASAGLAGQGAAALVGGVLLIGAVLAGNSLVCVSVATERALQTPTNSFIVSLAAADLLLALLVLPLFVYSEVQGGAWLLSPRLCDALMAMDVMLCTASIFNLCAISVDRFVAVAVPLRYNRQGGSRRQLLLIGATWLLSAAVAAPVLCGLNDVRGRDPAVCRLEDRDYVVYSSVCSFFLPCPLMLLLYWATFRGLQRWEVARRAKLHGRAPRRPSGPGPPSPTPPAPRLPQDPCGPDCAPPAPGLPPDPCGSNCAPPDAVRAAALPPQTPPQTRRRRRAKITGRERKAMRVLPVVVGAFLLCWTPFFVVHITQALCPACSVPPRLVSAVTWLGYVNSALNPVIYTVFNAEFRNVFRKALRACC
experimental protocol: D4.2 dopamine receptor binding assay ([3H]spiperone, membranes of CHO K1 cells)
condition description: human D4.2 receptor, 0.2 nM [3H]spiperone, 60 min, 25° C., apparent Ki from IC50 (Cheng and Prusoff)
As a rule, pKi stands for the negative log10 of the concentration, concentration in M.

Answered cases to consult:
compound	experimental target	pKi
Cc1nc(N2CCN(CCC3NC(=O)c4ccccc43)CC2)sc1C (centres unmarked)	human recombinant dopamine D4.2 receptor (Homo sapiens, UniProt P21917, DEL265-296)	7.68
COc1ccc(N2CCN(CCC3c4ccccc4C(=O)N3C)CC2)cc1 (centres unmarked)	human recombinant dopamine D4.2 receptor (Homo sapiens, UniProt P21917, DEL265-296)	7.43
Cc1ccc(N2CCN(CCC3NC(=O)c4ccccc43)CC2)cc1C (centres unmarked)	human recombinant dopamine D4.2 receptor (Homo sapiens, UniProt P21917, DEL265-296)	8.06
O=C1NC(CCN2CCN(c3ccccc3)CC2)c2ccccc21 (centres unmarked)	human recombinant dopamine D4.2 receptor (Homo sapiens, UniProt P21917, DEL265-296)	7.61
Cc1ccc(N2CCN(CCC3NC(=O)c4ccccc43)CC2)cc1C (single isomer, unassigned; (+))	human recombinant dopamine D4.2 receptor (Homo sapiens, UniProt P21917, DEL265-296)	7.38

Give the measured pKi for O=C1NC(CCN2CCN(c3ccc(Cl)cc3)CC2)c2ccccc21 (centres unmarked)
7.56

Give the measured pKi for Cc1ccc(N2CCN(CCC3NC(=O)c4ccccc43)CC2)nc1 (centres unmarked)
7.65

Give the measured pKi for Cc1ccc(N2CCN(CCC3NC(=O)c4ccccc43)CC2)cc1C (single isomer, unassigned; (-))
8.11

Give the measured pKi for O=C1NC(CCN2CCC(=C(c3ccccc3)c3ccccc3)CC2)c2ccccc21 (centres unmarked)
7.00

Give the measured pKi for Cc1ccc(C2CCN(CCC3NC(=O)c4ccccc43)CC2)cc1C (centres unmarked)
8.03

Give the measured pKi for Cc1ccc(N2CCN(CCC3NC(=O)c4ccccc43)CC2)cc1 (centres unmarked)
7.91
